Measured Protein binding (%) of individual entries
tested.target: serum proteins
experimental.protocol: 90% serum, 30 kDa ultrafiltration, HPLC

>  <binder>
GFCWYVCVYRNGSRVCYRRCN [SEQ ID NO: 36]

>  <Protein binding (%)>
60

$$$$
>  <binder>
GFCWYACVYRNGKRVCYRRCN [SEQ ID NO: 80]

>  <Protein binding (%)>
96

$$$$
>  <binder>
GFCWNLCVYRNGVRVCHRRCN [SEQ ID NO: 263]

>  <Protein binding (%)>
80

$$$$
>  <binder>
GFCWNVCVARNGVRVCHRRCN [SEQ ID NO: 299]

>  <Protein binding (%)>
74

$$$$
>  <binder>
GFCWYVCVYRNGVRVCYRRCN [antimicrobial peptide of SEQ ID NO: 2 (the parent antimicrobial peptide)]

>  <Protein binding (%)>
99.5

$$$$
>  <binder>
GFCWHVCHYRNSVRVCYRRCN [SEQ ID NO: 219]

>  <Protein binding (%)>
99

$$$$
>  <binder>
GFCGHVCVYRNGVRRCYRRCN [SEQ ID NO: 155]

>  <Protein binding (%)>
83

$$$$
